# assay_remarks: Retention time at 30 mM
# Format: ADME
# recorded_conditions: 30000 µM
value_type: Retention time (min)
Write the number in min without appending the unit.

Incoming: Requested read-out: Retention time. Entry: "COC(=O)Nc1ccccc1-c1nc(C)c(-c2cccnc2)[nH]1"
Outgoing: 7.94

Incoming: Requested read-out: Retention time. Entry: "COc1c(-c2nc(C)c(-c3cccnc3)[nH]2)cc2nc(C)[nH]c2c1Cl"
Outgoing: 4.36

Incoming: Requested read-out: Retention time. Entry: "Cc1ccccc1-c1nc(C)c(-c2cccnc2)[nH]1"
Outgoing: 4.92

Incoming: Requested read-out: Retention time. Entry: "Cc1[nH]c(-c2ccccc2F)nc1-c1cccnc1"
Outgoing: 7.84

Incoming: Requested read-out: Retention time. Entry: "Cc1nc2cc(-c3nc(C)c(-c4cccnc4)[nH]3)c(C)cc2[nH]1"
Outgoing: 1.294

Incoming: Requested read-out: Retention time. Entry: "Cc1[nH]c(-c2ccccc2N)nc1-c1cccnc1"
Outgoing: 3.37
